TEST SUMMARY: recombinant UMI read abundance after kanamycin selection (control-corrected) (log10(CPM+1)); higher = more efficient recombination; extreme values may be limits of the assay; sequences stand for … in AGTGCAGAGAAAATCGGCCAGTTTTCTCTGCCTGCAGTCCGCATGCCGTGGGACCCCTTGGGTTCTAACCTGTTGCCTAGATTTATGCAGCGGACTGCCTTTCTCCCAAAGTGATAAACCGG…AGGTTGGTTTCACT; site = the 11-nt donor;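 also: IS621 bridge recombinase in Escherichia coli cells against a fixed T5 target plasmid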
RECORDED METRIC: recombinant UMI read abundance (log10)

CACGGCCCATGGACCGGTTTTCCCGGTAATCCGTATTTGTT (site CACTGCCCTAA)    0.0132
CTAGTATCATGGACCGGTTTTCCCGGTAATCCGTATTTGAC (site TTCGTATCTGT)    0
AGAAAGGCATGGACCGGTTTTCCCGGTAATCCGTATTTGCC (site AGAAAGGCTAG)    0
TAGCATTCATGGACCGGTTTTCCCGGTAATCCGTATTTGGT (site TAGCATTCTAC)    1.23
AGCGTAGCATGGACCGGTTTTCCCGGTAATCCGTATTTGTT (site AGCTTAGCTAA)    0.00472
GCTTGCCCATGGACCGGTTTTCCCGGTAATCCGTATTTGAG (site GCTTGCCCTAT)    0.0201
TGCCACACATGGACCGGTTTTCCCGGTAATCCGTATTTGAG (site TGCCACACTCT)    0.305
TTTGGCACATGGACCGGTTTTCCCGGTAATCCGTATTTGGC (site TTTGGCACTGC)    0.00668
GATTGGACATGGACCGGTTTTCCCGGTAATCCGTATTTGCC (site GATTGGACTGG)    2.68
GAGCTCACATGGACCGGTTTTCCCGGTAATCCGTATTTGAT (site CAGCTCACTAT)    0.963
AACGTAACATGGACCGGTTTTCCCGGTAATCCGTATTTGCT (site AATGTAACTAG)    1.49
AAGTCCACATGGACCGGTTTTCCCGGTAATCCGTATTTGCT (site AAGTCCACTAG)    1.56
CCGTTAGCATGGACCGGTTTTCCCGGTAATCCGTATTTGTT (site CCGTTAGCTAA)    1.02
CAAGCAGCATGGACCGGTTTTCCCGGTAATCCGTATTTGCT (site CAAGCAGCTCG)    0.839
ACAGGTGCATGGACCGGTTTTCCCGGTAATCCGTATTTGAT (site CCAGGTGCTAT)    2.2
GGCTCAGCATGGACCGGTTTTCCCGGTAATCCGTATTTGGG (site CGCTCAGCTCC)    0.0293
GCAACTACATGGACCGGTTTTCCCGGTAATCCGTATTTGTG (site GCAACTACTCA)    1.17
CCCCGAGCATGGACCGGTTTTCCCGGTAATCCGTATTTGCA (site CCCCGAGCTTG)    0.798
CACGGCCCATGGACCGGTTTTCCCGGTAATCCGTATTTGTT (site CACGGTCCTAA)    0.311
TTGCCGGCATGGACCGGTTTTCCCGGTAATCCGTATTTGGC (site TTGCCGGCTGC)    0
GATTCATCATGGACCGGTTTTCCCGGTAATCCGTATTTGCG (site GATTCATCTCG)    1.2
TGCTGGGCATGGACCGGTTTTCCCGGTAATCCGTATTTGGT (site TGCTAGGCTAC)    0.109
